The values you see were collected from patent US12622912B2.

# system: human PI3K p110α (H1047R)/p85α (Homo sapiens, UniProt P42336, H1047R)
# Sequence (P42336 whole entry H1047R): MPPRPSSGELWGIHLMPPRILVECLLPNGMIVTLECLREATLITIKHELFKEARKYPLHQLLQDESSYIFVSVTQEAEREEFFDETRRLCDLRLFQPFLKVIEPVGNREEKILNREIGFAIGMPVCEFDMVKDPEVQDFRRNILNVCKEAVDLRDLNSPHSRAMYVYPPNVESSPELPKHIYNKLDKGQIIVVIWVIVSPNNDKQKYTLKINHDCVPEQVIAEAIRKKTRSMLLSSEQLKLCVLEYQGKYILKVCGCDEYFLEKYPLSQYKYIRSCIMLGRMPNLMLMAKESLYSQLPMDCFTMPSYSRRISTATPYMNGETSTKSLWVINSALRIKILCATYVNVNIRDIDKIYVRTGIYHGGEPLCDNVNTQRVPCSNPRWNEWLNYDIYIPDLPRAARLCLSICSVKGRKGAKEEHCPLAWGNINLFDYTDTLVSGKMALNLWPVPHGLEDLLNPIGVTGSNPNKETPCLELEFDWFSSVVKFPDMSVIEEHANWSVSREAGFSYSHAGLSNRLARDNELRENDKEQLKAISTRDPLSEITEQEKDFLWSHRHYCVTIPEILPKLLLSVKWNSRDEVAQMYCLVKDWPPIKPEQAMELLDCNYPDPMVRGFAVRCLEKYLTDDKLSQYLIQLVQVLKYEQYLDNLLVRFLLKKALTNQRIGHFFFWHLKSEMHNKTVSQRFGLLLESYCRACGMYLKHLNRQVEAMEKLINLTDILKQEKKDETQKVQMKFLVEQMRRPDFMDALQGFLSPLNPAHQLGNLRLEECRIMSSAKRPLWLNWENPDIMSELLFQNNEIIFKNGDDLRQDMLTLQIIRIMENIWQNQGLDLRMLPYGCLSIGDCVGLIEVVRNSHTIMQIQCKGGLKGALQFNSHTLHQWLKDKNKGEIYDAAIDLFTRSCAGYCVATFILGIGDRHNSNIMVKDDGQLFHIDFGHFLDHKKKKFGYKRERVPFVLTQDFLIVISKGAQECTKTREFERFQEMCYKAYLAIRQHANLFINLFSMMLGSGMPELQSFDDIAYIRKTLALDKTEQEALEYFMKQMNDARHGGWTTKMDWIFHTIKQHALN
# Sequence (P27986 whole entry partner): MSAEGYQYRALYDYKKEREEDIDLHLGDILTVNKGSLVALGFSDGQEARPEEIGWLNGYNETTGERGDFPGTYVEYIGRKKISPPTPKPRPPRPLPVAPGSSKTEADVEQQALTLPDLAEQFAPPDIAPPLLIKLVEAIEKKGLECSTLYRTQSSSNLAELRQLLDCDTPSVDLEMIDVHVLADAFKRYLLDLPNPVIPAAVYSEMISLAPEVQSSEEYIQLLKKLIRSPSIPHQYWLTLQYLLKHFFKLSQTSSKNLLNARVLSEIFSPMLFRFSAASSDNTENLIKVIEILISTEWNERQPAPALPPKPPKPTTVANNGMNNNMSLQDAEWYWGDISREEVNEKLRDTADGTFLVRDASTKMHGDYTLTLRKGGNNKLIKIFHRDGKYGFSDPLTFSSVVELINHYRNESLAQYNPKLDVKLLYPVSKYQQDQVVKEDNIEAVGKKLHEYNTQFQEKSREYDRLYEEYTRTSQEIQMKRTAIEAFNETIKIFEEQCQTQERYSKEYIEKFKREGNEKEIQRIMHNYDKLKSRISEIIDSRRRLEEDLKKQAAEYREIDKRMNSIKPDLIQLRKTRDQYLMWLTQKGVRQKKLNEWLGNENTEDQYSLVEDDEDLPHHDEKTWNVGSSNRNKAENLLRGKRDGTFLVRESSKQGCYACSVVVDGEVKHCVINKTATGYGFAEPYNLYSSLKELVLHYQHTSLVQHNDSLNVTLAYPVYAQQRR
# experimentalProtocol: HTRF kinase activity assay, H1047R mutant
testReadout: IC50

1. COCCOc1cnc2ccc(-c3cnc(OC)c(NS(=O)(=O)c4sc(C)nc4C)c3)cn2c1=O
2 nM

----------
# System: T47D PIK3CA-mutated breast cancer cell line
# experimentalProtocol: CTG cell proliferation, T47D
# Format: cell-based
# measurementContext: 72 hours, listed as compound I, read-out: Absolute IC50
pIC50: −log10 of the molar value.
testReadout: pIC50

1) COCCOc1cnc2ccc(-c3cnc(OC)c(NS(=O)(=O)c4sc(C)nc4C)c3)cn2c1=O
> 6.00

----------
# System: ME-180 PIK3CA-mutated cervical cancer cell line
# experimentalProtocol: CTG cell proliferation, ME-180
# Assay type: cell-based
# measurementContext: Homo sapiens; ME-180, CTG, 72 hours; read-out: Absolute IC50
pIC50: −log10 of the molar value.
testReadout: pIC50

1) COCCOc1cnc2ccc(-c3cnc(OC)c(NS(=O)(=O)c4sc(C)nc4C)c3)cn2c1=O
7.82
2) Cc1nc(NC(=O)N2CCC[C@H]2C(N)=O)sc1-c1ccnc(C(C)(C)C(F)(F)F)c1
5.68
